Sourced from patent US20180230200A1

TARGET OF ASSAY: T1, gH/gL/UL128/UL130/UL131A pentamer complex expressed from MVA-PC in BHK-21 cells (human cytomegalovirus, UniProt P12824 24-743; P16832 31-278; P16837 28-171; P16772 1-214; F5HET4 19-129)
T1 construct: whole, on cells
ASSAY DETAILS: FC competition, MVA-PC BHK-21; unlabelled row Ab; competitor: biotinylated AP86; further: test concentration or dose not given here
METRIC: Binding Inhibition (%)
Give bare numbers, in %.

What value of measured Binding Inhibition (%) is listed for 21E9 (antibody, V domains shown, also called NAb 21E9) VH: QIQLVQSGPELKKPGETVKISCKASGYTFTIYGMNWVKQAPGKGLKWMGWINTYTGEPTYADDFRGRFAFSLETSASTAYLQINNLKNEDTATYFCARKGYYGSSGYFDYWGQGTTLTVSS VL: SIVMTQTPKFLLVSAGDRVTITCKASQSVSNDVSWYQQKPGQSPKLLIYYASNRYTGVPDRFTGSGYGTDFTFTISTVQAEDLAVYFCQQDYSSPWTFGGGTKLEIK ?
0
